tested on: Rhipacephalus sanguineus, adult ticks; assay: Contact activity against adult ticks, coated glass vial assay; format: in vivo; conditions: Conc. 7.80 ug/cm2, 24 h
Recorded % Mortality 24 h by entry
Report the value in % with no unit label.

// below: answered molecules
CC1C(Cl)(Cl)C1(C)c1nn(-c2c(Cl)cc(C(F)(F)F)cc2Cl)cc1C#N (centres unmarked) ... 80
N#Cc1nn(-c2c(Cl)cc(C(F)(F)F)cc2Cl)c(N)c1[S+]([O-])C(F)(F)F (centres unmarked) [Standard, Fipronil, reference compound] ... 100

### Prompt For the molecule CC1(c2nn(-c3c(Cl)cc(C(F)(F)F)cc3Cl)c(Br)c2C#N)CC1(Cl)Cl (centres unmarked) , give its measured % Mortality 24 h value.
### Response 60

### Prompt For the molecule CC1(c2nn(-c3c(Cl)cc(C(F)(F)F)cc3Cl)c(N)c2C#N)CC1(Cl)Cl (centres unmarked) , give its measured % Mortality 24 h value.
### Response 70

### Prompt For the molecule CC1(c2nn(-c3c(Cl)cc(C(F)(F)F)cc3Cl)c(Cl)c2C#N)CC1(Cl)Cl (centres unmarked) , give its measured % Mortality 24 h value.
### Response 100

### Prompt For the molecule CN(C)c1c(C#N)c(C2(C)CC2(Cl)Cl)nn1-c1c(Cl)cc(C(F)(F)F)cc1Cl (centres unmarked) , give its measured % Mortality 24 h value.
### Response 30

### Prompt For the molecule CC1(c2nn(-c3c(Cl)cc(C(F)(F)F)cc3Cl)c(N)c2C#N)CC1(Br)Br (centres unmarked) , give its measured % Mortality 24 h value.
### Response 40

### Prompt For the molecule CC1(c2nn(-c3c(Cl)cc(C(F)(F)F)cc3Cl)c(Br)c2C#N)CC1(Br)Br (centres unmarked) , give its measured % Mortality 24 h value.
### Response 60

### Prompt For the molecule CC1(c2nn(-c3c(Cl)cc(C(F)(F)F)cc3Cl)c(I)c2C#N)CC1(Cl)Cl (centres unmarked) , give its measured % Mortality 24 h value.
### Response 50

### Prompt For the molecule CC1(c2nn(-c3c(Cl)cc(C(F)(F)F)cc3Cl)cc2C#N)CC1(Br)Br (centres unmarked) , give its measured % Mortality 24 h value.
### Response 80

### Prompt For the molecule CC1(c2nn(-c3c(Cl)cc(C(F)(F)F)cc3Cl)c(Cl)c2C#N)CC1(Br)Br (centres unmarked) , give its measured % Mortality 24 h value.
### Response 50

* * *

System: newly emerged larvae of Lucilia sericata, blowfly
Assay: Efficacy against blowfly larvae, treated paper/serum bioassay
Format: in vivo
Conditions: Conc. 2.0 ppm; 24 h; blowfly larvae
Experimental: Evaluation of Efficacy of Test Compounds Against Blowfly Larvae The efficacy of a test compound against newly emerged larvae of Lucilia sericata, blowfly, is evaluated using a treated paper/serum bioassay. In this evaluation, a solution of test compound in acetone is applied to a filter paper disc and the disc is allowed to dry. Bovine serum and about 20 newly emerged blowfly larvae are added to the treated paper disc and the mortality is assessed at 24 h and 48 h. The data are averaged.
observed property: % Mortality 24 h (%)
Report the value in % with no unit label.

CC1(c2nn(-c3c(Cl)cc(Cl)cc3Cl)cc2C#N)CC1(Br)Br (stereo not shown) ... 95
CC1(c2nn(-c3c(Cl)cc(Cl)cc3Cl)c(Br)c2C#N)CC1(Cl)Cl (stereo not shown) ... 95
CN(C)c1c(C#N)c(C2(C)CC2(Cl)Cl)nn1-c1c(Cl)cc(C(F)(F)F)cc1Cl (stereo not shown) ... 0

Please examine the following record next.
### Prompt For the molecule CCOC=Nc1c(C#N)c(C2(C)CC2(Cl)Cl)nn1-c1c(Cl)cc(C(F)(F)F)cc1Cl (racemic) , give its measured % Mortality 24 h value.
### Response 0
